tested on: PC-3 prostate; assay: NCI tumour cell line growth inhibition, 48 h
reported-metric: TGI

Field TGI (system: PC-3 prostate) for entry CC(=O)Nc1ncc2c(n1)-c1ccccc1OC2c1ccccc1 (stereo unspecified) = > 100 µM

Field TGI (system: PC-3 prostate) for entry COc1ccc(OC)c(N=Cc2cc(OC)c(OC)c(OC)c2)c1 = > 100 µM

Field TGI (system: PC-3 prostate) for entry COc1cccc(CCNC(=O)CC(c2ccccc2)(c2ccccc2)c2ccccc2)c1 = > 100 µM

Please give TGI, item by item, for the list that follows.
1. OCC1C2CCC3(OCCO3)C12 (stereo unspecified)
2. COc1cc(N2CCN(C(C)C)CC2)ccc1Nc1nc(Nc2ccc(F)cc2C(=O)NCC(O)CO)c2cc[nH]c2n1 (stereo unspecified)
3. Fc1ccc(Oc2nc3ccccc3nc2-c2ccccc2)cc1

1. > 100 µM
2. > 25 µM
3. > 100 µM

###

system: BT-549 breast; assay: NCI tumour cell line growth inhibition, 48 h
reported-metric: TGI

Worked cases, TGI given:
Recorded TGI (molecule NC1=NCC(CN2CCCCC2)O1 (stereo not given) ): > 100 µM

Recorded TGI (molecule COc1ccc(OC)c(N=Cc2cc(OC)c(OC)c(OC)c2)c1 ): > 100 µM

Recorded TGI (molecule COc1ccc(C[n+]2cccc(O)c2)cc1 ): > 100 µM

Please give TGI, item by item, for the list that follows.
1. O=C(/C=C/c1ccco1)Nc1ncc(Cc2cccc(C(F)(F)F)c2)s1
2. Cc1cc(O[C@@H]2O[C@@H](C)[C@H](O)[C@@H](O)[C@H]2O)c2c3c(c(O[C@@H]4O[C@@H](C)[C@H](O)[C@@H](O)[C@H]4O)cc2c1)C(=O)c1c(O)cccc1C3=O
3. O=C(NC(=O)c1ccccc1)OC(c1ccccc1)C1CO1 (stereo not given)
4. COc1ccc(C(OC(=O)[C@H](O[Si](C)(C)C(C)(C)C)[C@@H](NC(=O)c2ccccc2)c2ccccc2)c2ccc(OC)cc2)cc1

1: > 21.2 µM; 2: > 30 µM; 3: > 100 µM; 4: > 100 µM

Please give TGI, item by item, for the list that follows.
1. CC(=O)c1cc(CC2Cc3cc4c(cc3C2=O)CCC4)cc2c1CCC2 (stereo not given)
2. COc1cccc(CCNC(=O)CC(c2ccccc2)(c2ccccc2)c2ccccc2)c1
3. COc1ccc2nc3c(C)cc4ccccc4n3c2c1

1: > 100 µM; 2: > 100 µM; 3: > 100 µM

###

tested on: MCF7 breast; test: NCI tumour cell line growth inhibition, 48 h
Where a SMILES comes first, the peptide text is derived from it. The star is where a group is joined. Boc = CC(C)(C)OC(=O)*
Provide the recorded TGI for the entries that follow.

Worked cases, TGI given:
Recorded TGI (molecule CN(C)c1ccc(/C=C(\C#N)c2ccccc2)cc1 ): > 100 µM

Recorded TGI (molecule [N-]=[N+]=NCCCn1c2c(c3ccc([N+](=O)[O-])cc3c1=O)C(=O)c1cc(I)ccc1-2 ): > 100 µM

Recorded TGI (molecule CCCC(=O)N(C)N=Nc1ccc(C(=O)OCC)cc1 ): > 100 µM

Recorded TGI (molecule CCOc1ccc(N2C(=O)NC3(c4ccccc4)N(C)C(=O)N(C)C23c2ccccc2)cc1 (stereo not drawn) ): > 100 µM

Please give TGI, item by item, for the list that follows.
1. NS(=O)(=O)c1ccc(N=Nc2c(O)[nH]c3ccc(C(=O)NCCc4cnc[nH]4)cc23)cc1
2. C=C1C2C[C@@H]3O[C@H]4C[C@H]5O[C@@]6(C[C@@H]7O[C@]8(C[C@H](C)[C@@H]9O[C@@H]%10CC(C=O)O[C@@H]%10C[C@@H]9O8)C[C@H](C)[C@@H]7O6)C[C@H]5O[C@H]4[C@H](C)[C@H]3OC(=O)C[C@H]3CC[C@@H]4OC5[C@H]6O[C@]7(CC[C@H]8CC(=C)[C@H](CC[C@@H](C[C@H]1C)O2)O8)CC6O[C@@H]5[C@@H](O7)[C@H]4O3 (stereo partly drawn)
3. CC(=O)Nc1ncc2c(n1)-c1ccccc1OC2c1ccccc1 (stereo not drawn)

["> 25 µM", "> 1 µM", "> 100 µM"]

Please give TGI, item by item, for the list that follows.
1. CC(NC(=O)C1CCCN1C(=O)CNC(=O)OC(C)(C)C)C(=O)O (stereo not drawn) (Boc-Gly-Pro-Ala-OH; configuration not given here)
2. O=C(Nc1ccn(C2CC(I)C(COC(c3ccccc3)(c3ccccc3)c3ccccc3)O2)c(=O)n1)c1ccccc1 (stereo not drawn)
3. O=C(Nc1ccc(Oc2ccc(NC(=O)Nc3ccccc3Cl)cc2)cc1)Nc1ccccc1Cl
4. Nc1c(C(=O)c2ccc(C#CCN3CCOCC3)cc2)cnn1-c1ccc(F)cc1
5. Cc1cc(O[C@@H]2O[C@@H](C)[C@H](O)[C@@H](O)[C@H]2O)c2c3c(c(O[C@@H]4O[C@@H](C)[C@H](O)[C@@H](O)[C@H]4O)cc2c1)C(=O)c1c(O)cccc1C3=O

> 100 µM
> 31.6 µM
> 100 µM
> 25 µM
> 30 µM

Recorded TGI (molecule Cc1ccc(N=NN(C)C(C)C(O)Cc2ccccc2)cc1 (stereo not drawn) ): > 100 µM

###

test system: UACC-62 melanoma; experiment: NCI tumour cell line growth inhibition, 48 h
reported-metric: TGI

Worked cases, TGI given:
Recorded TGI (compound CSCCC(NC(=O)Cc1ccc(C(=O)c2ccccc2)cc1)C(=O)N1CCN(CCCCN2c3ccccc3Sc3cc(N=[N+]=[N-])ccc32)CC1 (configuration not stated) ): > 100 µM

Recorded TGI (compound Clc1ccc(-c2nc3c(-c4ccccc4)nc(-c4ccccc4)cn3c2-c2ccc(Cl)cc2)cc1 ): > 100 µM

Recorded TGI (compound Cc1ccc(C(=O)O)c(/C=C2\Cc3cc(C)cc(C)c3C2=O)c1 ): > 100 µM

Recorded TGI (compound COC(=O)CN=C1NC(=S)N(Cc2ccc(OC)cc2)C12CCCC2 ): > 100 µM

Please give TGI, item by item, for the list that follows.
1. COc1ccc2nc3c(C)cc4ccccc4n3c2c1
2. CCOC(=O)Nc1ccc2nc(N3CCCCCC3)sc2c1

> 100 µM
> 100 µM

###

tested on: HOP-92 NSCLC; test: NCI tumour cell line growth inhibition, 48 h
reported-metric: log10 of TGI (log10 of the value in µM)
Give log10 of TGI, with TGI taken in µM.

Worked cases, log10 of TGI given:
Recorded log10 of TGI (compound CCOC(=O)C1=C(C)NC(C)=C(C(=O)OCCNC(=O)c2ccc(N=[N+]=[N-])cc2)C1c1ccccc1C(F)(F)F (stereo not drawn) ): 1.28

Recorded log10 of TGI (compound CCN(CC)CCCC(C)Nc1c2ccc(Cl)cc2nc2cc(Cl)ccc12 (stereo not drawn) ): 0.98

Recorded log10 of TGI (compound O=C(NC1CCN(Cc2ccccc2)CC1)c1cccc(I)c1 ): 1.80

Recorded log10 of TGI (compound CC(=O)Nc1ncc2c(n1)-c1ccccc1OC2c1ccccc1 (stereo not drawn) ): 1.62

Recorded log10 of TGI (compound C[C@@H]1CC[C@H]2[C@@H](C)C(OC/C=C/COC3O[C@@H]4O[C@@]5(C)CC[C@H]6[C@H](C)CC[C@@H]([C@H]3C)[C@@]46OO5)O[C@@H]3O[C@@]4(C)CC[C@@H]1[C@]32OO4 (stereo partly drawn) ): 1.66

Please give log10 of TGI, item by item, for the list that follows.
1. O=C(/C=C\c1cc(Br)ccc1O)/C=C/c1cc(Br)ccc1O
2. CCCCOC(=O)/C=C\C(=O)NC(N)=O

1. 0.57
2. 1.39

Please give log10 of TGI, item by item, for the list that follows.
1. CC1=NN(c2cccc(Cl)c2)C2(C1=Cc1cccs1)C(Cl)C(=O)N2c1nc2ccccc2s1 (stereo not drawn)
2. CCOC(=O)NC(Nc1ccc(S(=O)(=O)Nc2ccc(OC)nn2)cc1)(C(F)(F)F)C(F)(F)F

1: 1.72; 2: 1.86

###

system: TK-10 renal; assay: NCI tumour cell line growth inhibition, 48 h
reported-metric: TGI (µM)
Numbers only, in µM.

Worked cases, TGI given:
Field TGI (system: TK-10 renal) for entry O=C(c1cc(Cl)cc(Cl)c1)N(Cc1cccnc1)C(=S)N(Cc1cccnc1)C(=O)c1cc(Cl)cc(Cl)c1 = 89.6

Field TGI (system: TK-10 renal) for entry CCCCCCCCCCCCNC(=O)N[C@H](C(=O)N[C@H]1/C=C/CCNC(=O)/C=C/[C@H](C)NC1=O)C(C)C = 0.191

Field TGI (system: TK-10 renal) for entry COC1=CC(c2ccc[nH]2)=N/C1=C\c1[nH]c(C)c(C(=O)Oc2ccccc2)c1C = 2.55

Field TGI (system: TK-10 renal) for entry CCOC(=O)C1=C(C)NC(C)=C(C(=O)OCCNC(=O)c2ccc(N=[N+]=[N-])cc2)C1c1ccccc1C(F)(F)F (stereo not given) = 31.1

Field TGI (system: TK-10 renal) for entry CCCCCCCCCC(=O)NCCc1c[nH]c2ccc(OC)cc12 = 35.1

Next, consider the following compound.
Field TGI (system: TK-10 renal) for entry CN1CN(c2ccccc2)C2(CCN(C3Nc4ccccc4O3)CC2)C1=O (stereo not given) = 46.3

Reference for the values: PubChem BioAssay (NCI)
